Values were extracted from patent US10010525B2.

- measurement.target: GABAA (α1β2γ2s) receptors (UniProt P14867+P18508+P63138)
- Construct: expressed in transfected cells; host or cells: Xenopus laevis oocytes (intranuclear plasmid injection, α1:β2:γ2 = 1:1:10)
- Sequence (P14867 28-456): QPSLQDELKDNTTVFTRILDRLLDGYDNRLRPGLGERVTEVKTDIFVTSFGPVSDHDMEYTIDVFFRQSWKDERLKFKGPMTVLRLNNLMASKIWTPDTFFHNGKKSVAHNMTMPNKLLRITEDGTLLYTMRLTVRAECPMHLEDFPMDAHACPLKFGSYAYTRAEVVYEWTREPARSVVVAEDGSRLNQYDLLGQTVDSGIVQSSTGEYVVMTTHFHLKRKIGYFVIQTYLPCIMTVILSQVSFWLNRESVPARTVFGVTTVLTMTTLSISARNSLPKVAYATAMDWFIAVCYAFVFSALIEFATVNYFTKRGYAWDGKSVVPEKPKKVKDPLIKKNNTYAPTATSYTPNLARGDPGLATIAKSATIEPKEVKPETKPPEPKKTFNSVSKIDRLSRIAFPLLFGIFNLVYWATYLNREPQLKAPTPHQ
- Sequence (P63138 25-474 limits assumed): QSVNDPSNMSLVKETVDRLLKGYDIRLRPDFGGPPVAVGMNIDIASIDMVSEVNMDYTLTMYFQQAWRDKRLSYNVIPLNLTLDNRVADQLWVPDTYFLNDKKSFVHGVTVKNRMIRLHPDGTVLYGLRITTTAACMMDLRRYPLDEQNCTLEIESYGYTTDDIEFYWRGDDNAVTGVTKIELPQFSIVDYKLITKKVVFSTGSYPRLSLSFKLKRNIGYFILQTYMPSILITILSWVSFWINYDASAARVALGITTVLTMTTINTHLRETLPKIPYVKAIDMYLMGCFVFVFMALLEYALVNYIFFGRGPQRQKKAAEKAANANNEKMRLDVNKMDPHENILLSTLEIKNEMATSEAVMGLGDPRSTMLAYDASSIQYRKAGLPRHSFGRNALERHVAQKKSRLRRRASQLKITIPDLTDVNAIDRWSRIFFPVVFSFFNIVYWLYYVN
- Sequence (P18508 39-466): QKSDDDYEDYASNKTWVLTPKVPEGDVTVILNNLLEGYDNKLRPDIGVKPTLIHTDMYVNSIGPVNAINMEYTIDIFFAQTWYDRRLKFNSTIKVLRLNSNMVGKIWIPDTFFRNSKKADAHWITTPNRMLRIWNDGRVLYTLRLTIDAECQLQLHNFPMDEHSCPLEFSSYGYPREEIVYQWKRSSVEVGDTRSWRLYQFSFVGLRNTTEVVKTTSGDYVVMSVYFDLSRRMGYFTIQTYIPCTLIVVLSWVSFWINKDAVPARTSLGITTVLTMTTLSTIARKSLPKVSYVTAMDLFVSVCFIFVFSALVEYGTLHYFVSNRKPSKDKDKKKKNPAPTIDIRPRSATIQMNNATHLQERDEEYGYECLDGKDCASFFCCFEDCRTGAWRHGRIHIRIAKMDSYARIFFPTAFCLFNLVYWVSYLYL
- test.protocol: GABAA receptor two-electrode voltage clamp in oocytes at saturated drug concentration
- Assay type: cell-based, human α1, rat β2 and γ2s
- applied.conditions: drug with γ-aminobutyric acid; percent of control agonist peak; mean ±SEM, 5-6 oocytes; saturated drug
// returns False unless GABAA % Agonist Effect is strictly below 200%, in which case True

>>> df
                             molecule  classification
 0                     CCc1cccc(CC)c1           False
 1                              CCCCC           False
 2                      CCCCCCCCCCCCO            True
 3                            CCCCCCS           False
 4                             CCCCCS           False
 5                          C#CCCCCCC           False
 6                   CCCCCCCCCCC(C)=O           False
 7              CCCCCCCCCCCCCCCCCCCCN            True
 8                      CCCCCCCCCCC=O           False
 9                       CCCCCCCCCCCO            True
10                    CCCCCCCCCC(C)=O           False
11                        CCCCCCCCCCO           False
12                        CCCCCOCCCCC           False
13                      CCCCCCOCCCCCC            True
14  CCCCCCCC(=O)OCC [ethyl octanoate]           False
15                            C#CCCCC           False
